Experiment: A CellTox Green Cytotoxicity Assay to monitor cytotoxicity in HEK293 cells - 32 hour (AID 1224881); also: nearly all actives have a fitted effect of over 40% in size; also: potency is read from the fitted curve at half-maximal effect
Conditions: CellTox Green fluorescence; series mostly up to 76.8 µM
Inconclusive results are not listed. Calls of active or inactive are those of the source. Calls follow the shape of the dose curve; as a rule, active = well fitted activation curve with a large enough effect in the repeat runs; inconclusive = weak or mixed curves; inactive = flat fitted curve, though single readings scatter.
Assay Readout: Potency

Here are 4 compounds together with their reported answers.
1) COc1cc(C=C2CCC/C(=C\c3ccc(O)c(OC)c3)C2=O)ccc1O; inactive
2) CO[C@H]1C=CO[C@@]2(C)Oc3c(C)c(O)c4c(O)c(cc(O)c4c3C2=O)NC(=O)/C(C)=C\C=C/[C@H](C)[C@H](O)[C@@H](C)[C@@H](O)[C@@H](C)[C@H](OC(C)=O)[C@@H]1C; inactive
3) CC1CNCC(C)O1 (configuration not stated); inactive
4) CCC(=O)OCCc1ccccc1; inactive

Consider the additional compound presented here.
Prompt line: # input compound: CCCCCCOc1cc(C)c(O)c(C)c1C ; wanted: its Potency
Response line: 44.2 µM (active)

----------
Experiment: qHTS assay to test for compound auto fluorescence at 535 nm (green) in HEK293 cells (AID 720680); also: % is scaled to controls: 0 for no effect and ±100 for the full control effect
Conditions: green autofluorescence 485/535 nm; series mostly up to 91.3 µM
Activity calls are given as the source filed them. The call rests on the fitted dose curve; in most records, active means well fitted curve in the direction sought with a large enough effect in the repeat runs; inconclusive means weak or mixed curves; inactive means flat fitted curve, though single readings scatter.
Assay Readout: fluorescence, % of fluorescein

1) CC(C)(C)CC(C)(C)c1ccccc1O; inactive
2) CCCCCCCC/C=C/CCCOC(C)=O; inactive
3) CCCCN(CCCC)CCC(O)c1cc2c(Cl)cc(Cl)cc2c2cc(C(F)(F)F)ccc12 (stereo unspecified); -0.0754% [at 18.6 µM] (inactive)
4) CC1=C(/C=C/C(C)=C/C=C/C(C)=C/C(=O)Nc2ccc(O)cc2)C(C)(C)CCC1; inactive
5) CCN(CC)CCSC(=O)C(c1ccccc1)c1ccccc1; inactive

Consider the additional compound presented here.
Prompt line: # input compound: CC(=O)Oc1ccc(C2(c3ccc(OC(C)=O)cc3)Oc3ccccc3NC2=O)cc1 ; wanted: its fluorescence, % of fluorescein
Response line: inactive

----------
Assay: qHTS RealTime-Glo MT Cell Viability Assay in HepG2 cells - 32 hour (AID 1224877); also: nearly all actives have a fitted effect of over 55% in size
Conditions: RealTime-Glo luminescence; series mostly up to 76.8 µM
Description: U.S. Tox21 Program National Center for Advancing Translational Sciences [NCATS] NIH Chemical Genomics Center [NCGC] U.S. Environmental Protection Agency [EPA] National Institutes of Environmental Health Sciences [NIEHS] National Toxicology Program [NTP] U.S. Food and Drug Administration [FDA] Tox21 Assay Overview: Measure of cell viability is critical in the cell-base assay. Analysis of cell viability is necessary for the characterization of cell responses to cytotoxic drugs and environmental stress. […]
Inconclusive results are not listed. The source made the active and inactive calls. The call rests on the fitted dose curve; in most records, active means well fitted cell-killing curve with a large enough effect in the repeat runs; inconclusive means weak or mixed curves; inactive means flat fitted curve, though single readings scatter.
In this exercise, the only acceptable responses are 1 (yes) for active, 0 (no) for inactive

Example entries and their recorded answers appear below.
1) c1ccc2c(c1)CCC2; 0 (no)
2) CCCCCCC(C)OC(=O)COc1nc(F)c(Cl)c(N)c1Cl (configuration not stated); 0 (no)
3) OCCCS; 0 (no)
4) CC1(C)COCN1; 0 (no)
5) C=CC(=C)CCC=C(C)C; 0 (no)

Turning now to a further record.
Prompt line: Which outcome was assigned to CCN=C1C=CC(=C(c2ccc(N(CC)CC)cc2)c2ccc(N(CC)CC)cc2)c2ccccc21 in this test?
Response line: 1 (yes)

----------
Test: qHTS assay to identify small molecule antagonists of the glucocorticoid receptor (GR) signaling pathway - cell viability counter screen (AID 720693); also: nearly all actives have a fitted effect of over 55% in size
Settings: GR-bla HeLa viability, CellTiter-Glo luminescence, 18 h, with 5 nM dexamethasone present; series mostly up to 58.5 µM
Inconclusive results are not listed. The source made the active and inactive calls. The call rests on the fitted dose curve; in most records, active means well fitted cell-killing curve with a large enough effect in the repeat runs; inconclusive means weak or mixed curves, or effect the other way; inactive means no such curve, though single readings can be large or run the other way.
In this exercise, the only acceptable responses are active, inactive

1. CCCCCCCC/C=C\CCCCCCCC(=O)OCCOC(=O)CCCCCCC/C=C\CCCCCCCC; inactive

Prompt line: Which outcome was assigned to CN1[C@@H]2CC[C@H]1CC(OC(=O)C(CO)c1ccccc1)C2 (stereo partly specified) in this test?
Response line: inactive

Prompt line: Which outcome was assigned to CCCCCCCC/C=C\CCCCCCCC(=O)NCc1ccc(O)c(OC)c1 in this test?
Response line: active

----------
Experiment: qHTS assay to test for compound auto fluorescence at 590 nm (red) in HEK293 cells (AID 720679); also: % is scaled to controls: 0 for no effect and ±100 for the full control effect
Details: red autofluorescence 540/590 nm; series mostly up to 91.3 µM
Activity calls are given as the source filed them. The call rests on the fitted dose curve; in most records, active means well fitted curve in the direction sought with a large enough effect in the repeat runs; inconclusive means weak or mixed curves; inactive means flat fitted curve, though single readings scatter.
Assay Readout: fluorescence, % of fluorescent control

Here are 5 compounds together with their reported answers.
1) C=CCCCCCCC=C; inactive
2) CC(C)c1cccc(C(C)C)c1N1C(=O)c2ccc(O)cc2C1=O; inactive
3) CC(COC(=O)c1ccccc1)OC(=O)c1ccccc1 (stereo not drawn); inactive
4) CCCSS/C(CCO)=C(\C)N(C=O)Cc1cnc(C)nc1N; inactive
5) O=C1OC(=O)c2cccc3cccc1c23; inactive

Prompt line: # input compound: CC(O)C#CC(C)O (stereo not drawn) ; wanted: its fluorescence, % of fluorescent control
Response line: inactive

Prompt line: # input compound: CNC(=S)NN ; wanted: its fluorescence, % of fluorescent control
Response line: inactive

Prompt line: # input compound: CCCCCCCCCCCCCC[n+]1ccccc1 ; wanted: its fluorescence, % of fluorescent control
Response line: inactive

Prompt line: # input compound: CCCCOc1ccc(C(=O)CCN2CCCCC2)cc1 ; wanted: its fluorescence, % of fluorescent control
Response line: -0.0275% [at 18.6 µM] (inactive)

Prompt line: # input compound: CCOC(=O)[C@@](C)(N)Cc1ccc(O)c(O)c1 ; wanted: its fluorescence, % of fluorescent control
Response line: 0.559% [at 18.6 µM] (inactive)

Prompt line: # input compound: CCCCCCC(C)OC(=O)COc1nc(F)c(Cl)c(N)c1Cl (stereo not drawn) ; wanted: its fluorescence, % of fluorescent control
Response line: inactive

Prompt line: # input compound: CCCCCCCC/C=C\CCCCCCCC(=O)OCCOC(=O)CCCCCCC/C=C\CCCCCCCC ; wanted: its fluorescence, % of fluorescent control
Response line: inactive

Prompt line: # input compound: CCN(CC)CCNc1ccc(CO)c2sc3ccccc3c(=O)c12 ; wanted: its fluorescence, % of fluorescent control
Response line: inactive

----------
Experiment: A CellTox Green Cytotoxicity Assay to monitor cytotoxicity in HEK293 cells - 16 hour (AID 1224888); also: % is scaled to controls: 0 for no effect and ±100 for the full control effect; nearly all actives have a fitted effect of over 35% in size
Settings: CellTox Green fluorescence; series mostly up to 76.8 µM
Inconclusive results are not listed. The source made the active and inactive calls. Calls follow the shape of the dose curve; as a rule, active = well fitted activation curve with a large enough effect in the repeat runs; inconclusive = weak or mixed curves; inactive = flat fitted curve, though single readings scatter.
In this exercise, the only acceptable responses are TRUE = active, FALSE = inactive

Prompt line: Which outcome was assigned to CCOB(OCC)OCC in this test?
Response line: FALSE

----------
Experiment: qHTS assay to identify small molecule antagonists of the retinoid acid receptor (RAR) signaling pathway - cell viability counter screen (AID 1159551); also: nearly all actives have a fitted effect of over 35% in size; also: potency is read from the fitted curve at half-maximal effect
Conditions: C3RL4 cells viability, ATP luminescence (CellTiter-Glo), 6 h; series mostly up to 92.4 µM
Inconclusive results are not listed. Activity calls are given as the source filed them. Calls come from the whole dose curve; as a rule, active = well fitted cell-killing curve with a large enough effect in the repeat runs; inconclusive = weak or mixed curves, or effect the other way; inactive = flat fitted curve, though single readings scatter.
Assay Readout: Potency

Here are 4 compounds together with their reported answers.
1) O=S(=O)(O)CCCN1CCOCC1; inactive
2) CCCCCCCCCCCCCOP(=O)(O)O; inactive
3) CC(=O)C=O; inactive
4) CCN=C1C=CC(=C(c2ccc(N(CC)CC)cc2)c2ccc(N(CC)CC)cc2)c2ccccc21; 24.2 µM (active)

Prompt line: # input compound: O=C(NO)c1ccccc1 ; wanted: its Potency
Response line: inactive

Prompt line: # input compound: CSc1ccc2c(c1)N(CCC1CCCCN1C)c1ccccc1S2 (stereo not given) ; wanted: its Potency
Response line: 60.9 µM (active)

Prompt line: # input compound: CCCCCCS ; wanted: its Potency
Response line: inactive

Prompt line: # input compound: CCOC(/C=C(\C)CCC=C(C)C)OCC ; wanted: its Potency
Response line: inactive

Prompt line: # input compound: O=CC1CC1 ; wanted: its Potency
Response line: inactive

Prompt line: # input compound: Cc1cccc(C)n1 ; wanted: its Potency
Response line: inactive

Prompt line: # input compound: CC(C)(c1cc(Br)c(OCCO)c(Br)c1)c1cc(Br)c(OCCO)c(Br)c1 ; wanted: its Potency
Response line: inactive

Prompt line: # input compound: CC1(C)C(=O)N(CO)C(=O)N1CO ; wanted: its Potency
Response line: inactive

Prompt line: # input compound: CCCCNc1c(C(=O)OCC)c(C)nc2c1cnn2CC ; wanted: its Potency
Response line: inactive

Prompt line: # input compound: C#CC(O)CCC (stereo not given) ; wanted: its Potency
Response line: inactive

Prompt line: # input compound: C=C[C@](C)(O)CC[C@@H]1[C@@]2(C)CCCC(C)(C)[C@@H]2CC[C@@]1(C)O ; wanted: its Potency
Response line: 61.1 µM (active)

----------
Biological target: Estrogen receptor (Homo sapiens) (UniProt P03372)
Sequence (P03372 whole entry, looked up): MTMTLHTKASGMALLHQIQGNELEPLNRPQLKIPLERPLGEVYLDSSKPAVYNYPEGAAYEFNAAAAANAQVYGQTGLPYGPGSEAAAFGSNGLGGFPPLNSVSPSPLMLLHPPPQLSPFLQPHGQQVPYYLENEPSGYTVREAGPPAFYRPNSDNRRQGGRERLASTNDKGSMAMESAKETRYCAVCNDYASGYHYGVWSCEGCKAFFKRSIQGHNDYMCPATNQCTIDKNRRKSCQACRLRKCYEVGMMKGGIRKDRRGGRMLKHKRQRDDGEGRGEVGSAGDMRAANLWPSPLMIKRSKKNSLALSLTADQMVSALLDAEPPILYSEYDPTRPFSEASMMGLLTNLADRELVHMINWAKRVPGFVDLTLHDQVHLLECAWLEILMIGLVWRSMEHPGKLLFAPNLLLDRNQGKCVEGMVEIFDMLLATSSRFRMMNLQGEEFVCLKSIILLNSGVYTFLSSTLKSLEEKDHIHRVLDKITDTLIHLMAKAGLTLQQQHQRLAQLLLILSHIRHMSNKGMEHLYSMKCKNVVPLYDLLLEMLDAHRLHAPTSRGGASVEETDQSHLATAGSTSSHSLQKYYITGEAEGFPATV
Experiment: qHTS assay to identify small molecule antagonists of the estrogen receptor alpha (ER-alpha) signaling pathway (AID 743069)
Details: HEK293 ER-alpha-UAS-bla, beta-lactamase ratio, antagonist mode; series mostly up to 69.4 µM
The source made the active and inactive calls. Calls come from the whole dose curve; as a rule, active = well fitted curve in the direction sought with a large enough effect in the signal ratio in the repeat runs (not every such curve was filed as active); inconclusive = weak or mixed curves, or effect the other way; inactive = no such curve, though single readings can be large or run the other way; the % refers to the signal ratio.
In this exercise, the only acceptable responses are active, inactive

Example entries and their recorded answers appear below.
1) COc1cc(C=C2CCC/C(=C\c3ccc(O)c(OC)c3)C2=O)ccc1O; active
2) CNC(=O)c1cc(Oc2ccc(NC(=O)Nc3ccc(Cl)c(C(F)(F)F)c3)cc2)ccn1; active
3) CCCCCCCC/C=C/CCCOC(C)=O; inactive
4) CCCCOC(=O)C(C)CC (stereo not drawn); inactive
5) CC(CN(C)C)CN1c2ccccc2CCc2ccccc21 (stereo not drawn); inactive

Prompt line: Which outcome was assigned to CCCN(CCc1cccs1)[C@H]1CCc2c(O)cccc2C1 in this test?
Response line: inactive

Prompt line: Which outcome was assigned to S=C(SSSSSSC(=S)N1CCCCC1)N1CCCCC1 in this test?
Response line: inactive

Prompt line: Which outcome was assigned to CCN(CC)CCOC(=O)C1(C2CCCCC2)CCCCC1 in this test?
Response line: inactive

Prompt line: Which outcome was assigned to CCCCCCCOC(=O)c1ccc(O)cc1 in this test?
Response line: active

Prompt line: Which outcome was assigned to Nc1cc(Cl)c([N+](=O)[O-])cc1O in this test?
Response line: inactive
